- ASSAY: pKa of the ligand
- Type: physicochemical
- CONDITION LABEL: method marked (p), first pKa; read-out: pKa, first value (p)
Structures can show the parent of a compound that is named as a salt.
METRIC NAME: pKa
Give the value as a plain number.

Please list pKa recorded for the molecule Cn1ccc(=O)c(O)c1CO [CP364, hydrochloride]
3.13

Determine from records and report pKa for Cc1cc(=O)c(O)c(C(=O)N(C)C)n1C [CP508, hydrochloride]
2.61

Report measured pKa; entry is CNC(=O)c1c(O)c(=O)cc(C)n1C [CP502, hydrochloride]
2.83

State, in one line, measured pKa of Cc1cc(=O)c(O)c(C(=O)NC(C)C)n1C [CP504, hydrochloride]
2.81

Consider the molecule COC(C)c1c(O)c(=O)cc(C)n1C (centres unmarked) [CP363, hydrochloride] and give its recorded pKa.
3.2

---

- ASSAY: Iron (III) complex stability constant Logβ3
- Format: physicochemical
Structures can show the parent of a compound that is named as a salt.
METRIC NAME: Logβ3
The answer should be a number; do not append a unit.

The cases that follow already have their Logβ3 on record.
Cc1cc(=O)c(O)c(C(=O)NC(C)C)n1C [CP504, hydrochloride] ... 35.34
Cn1ccc(=O)c(O)c1CO [CP364, hydrochloride] ... 35.3
CCn1ccc(=O)c(O)c1CO [CP359, hydrochloride] ... 35.25
Cc1cc(=O)c(O)c(C(C)O)n1C (stereo not shown) [CP361, hydrochloride] ... 3.52

Consider the compound CC(O)c1c(O)c(=O)ccn1CCCO (stereo not shown) [CP372, hydrochloride] . State its measured Logβ3.
34.67

Output measured Logβ3 for this item: CCn1ccc(=O)c(O)c1C(C)O (stereo not shown) [CP365, hydrochloride]
34.8

Specify measured Logβ3 for COCc1cc(=O)c(O)c(COC)n1C [CP388, hydrochloride] .
34.5

---

- ASSAY: Distribution coefficient DpH7.4 (Kpart), octanol/MOPS pH 7.4
- Format: physicochemical
Where a name gives a salt, the structure may show the parent alone.
METRIC NAME: DpH 7.4
Write no unit; give the number alone.

Consider the worked cases shown below.
CCn1c(C)cc(=O)c(O)c1CO [CP369, hydrochloride] ... 0.223
Cn1ccc(=O)c(O)c1CO [CP364, hydrochloride] ... 0.048
COC(C)c1c(O)c(=O)cc(C)n1C (centres unmarked) [CP363, hydrochloride] ... 1.09
Cc1cc(=O)c(O)c(C(C)O)n1C (centres unmarked) [CP361, hydrochloride] ... 0.25
O=C(OCCCn1ccc(=O)c(O)c1CO)c1ccccc1 [CP367, hydrochloride] ... 5.61

For the compound CNC(=O)c1c(O)c(=O)cc(C)n1C [CP502, hydrochloride] , give its reported DpH 7.4.
0.04

# return recorded DpH 7.4 for input O=c1ccn(CCO)c(C(O)c2ccccc2)c1O (centres unmarked) [Novartis bidentate ligand (3), reference compound]
2.81

Identify measured DpH 7.4 associated with COCc1c(O)c(=O)cc(C)n1C [CP362]
0.42

Check the records and state DpH 7.4 for Cc1cc(=O)c(O)c(CO)n1C [CP360, hydrochloride]
0.098

Answer with the recorded DpH 7.4 for the compound listed here: Cc1c(O)c(=O)ccn1C [CP20, reference compound]
0.17
